Data origin: paper PMC9332313

# system: T1, SH2 domain of Crkl protein (residues 1-111), H91A variant (UniProt P46109 1-111, H91A)
# T1 construct: Crkl adaptor protein, SH2 domain, residues 1-111, His91 replaced by alanine; Site-directed mutant of m1 (QuikChange); source: E. coli BL21 (DE3), purified (HisTrap nickel column, desalting); not shown: His tag, N-terminal, kept
# T1 sequence (P46109 1-111 H91A): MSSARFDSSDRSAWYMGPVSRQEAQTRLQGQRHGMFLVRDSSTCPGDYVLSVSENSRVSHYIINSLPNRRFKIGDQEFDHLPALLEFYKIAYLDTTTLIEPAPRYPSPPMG
# methodSummary: stopped-flow fluorescence kinetics (FRET); dansyl-Pax112-123 constant at 2 μM mixed with Crkl-SH2 2 to 10 μM (pseudo-first-order, kon); koff by displacement of the preincubated 2 µM complex with excess non-dansylated Pax112-123 (30 μM); 283 K; 50 mM TrisHCl pH 9.0, 0.5 M NaCl
# measurementContext: both partners purified
Square brackets hold non-standard residues; d marks the D form. Ends that are not written are not given here. * marks the point of attachment. pY = N[C@@H](Cc1ccc(OP(=O)(O)O)cc1)C(=O)O; Dansyl = CN(C)c1cccc2c(S(=O)(=O)*)cccc12
experimentalReadout: Kd (nM)
Report the figure in nM without appending any unit label.

Lookup result for Dansyl-GEEEHV[pY]SFPNK (The dansyl group is the FRET acceptor of Trp14 of the SH2 domain; source: synthetic peptide, bought: GenScript) [dansylated Pax_(112–123) peptide (Dans-GEEEHV-pY-SFPNK)] ; measured Kd: 2900
